Values compiled from patent US20250011363A1.

Record form. Attribute: Binding affinity (RU). Fill in for each entry.
tested-on: acetylcholine receptor
assay-remarks: SPR, peptide at 10 µM on acetylcholine receptor

query: What does the data say about its Binding affinity (RU)? Entry: RQITK [5mer-74]
result: 87 RU

query: What does the data say about its Binding affinity (RU)? Entry: RRQRR [5mer-73]
result: 179 RU

query: What does the data say about its Binding affinity (RU)? Entry: KRFCR [5mer-390]
result: 64 RU

query: What does the data say about its Binding affinity (RU)? Entry: RSYQR [5mer-361]
result: 58 RU

query: What does the data say about its Binding affinity (RU)? Entry: RQQYK [5mer-52]
result: 50 RU

query: What does the data say about its Binding affinity (RU)? Entry: RSRLR [5mer-392]
result: 87 RU

query: What does the data say about its Binding affinity (RU)? Entry: KWVYR [5mer-93]
result: 79 RU

query: What does the data say about its Binding affinity (RU)? Entry: RGFYK [5mer-68]
result: 82 RU

query: What does the data say about its Binding affinity (RU)? Entry: RVVRR [5mer-84]
result: 67 RU

query: What does the data say about its Binding affinity (RU)? Entry: KLFTR [5mer-374]
result: 75 RU

query: What does the data say about its Binding affinity (RU)? Entry: KWRTR [5mer-49]
result: 62 RU

query: What does the data say about its Binding affinity (RU)? Entry: KVICK [5mer-78]
result: 79 RU

query: What does the data say about its Binding affinity (RU)? Entry: RRLCK [5mer-86]
result: 55 RU

query: What does the data say about its Binding affinity (RU)? Entry: RWYTK [5mer-90]
result: 86 RU

query: What does the data say about its Binding affinity (RU)? Entry: KGFSR [5mer-83]
result: 64 RU

query: What does the data say about its Binding affinity (RU)? Entry: RWQRK [5mer-383]
result: 56 RU

query: What does the data say about its Binding affinity (RU)? Entry: RLRQR [5mer-382]
result: 62 RU
